We begin with a simple list: items and their reported Population Healthy Nuclei (%).
# Tested on: U2OS
# measurement_description: Multiplex assay against U2OS
# Format: toxicity, cell-based
# test_parameters: human, 24 h, 1 µM, compound concentration 1 uM, replicate 1

>  <compound>
CCOc1ccn(-c2ccc(F)cc2)c(=O)c1C(=O)Nc1ccc(Oc2ccnc(N)c2Cl)c(F)c1 [BMS-777607]

>  <value_unit>
%

>  <Population Healthy Nuclei (%)>
85

$$$$
>  <compound>
CC(C)C[C@H](NC(=O)[C@H](Cc1ccccc1)NC(=O)CNC(=O)CNC(=O)[C@@H](N)Cc1ccc(O)cc1)C(=O)O [ENKEPHALIN]

>  <value_unit>
%

>  <Population Healthy Nuclei (%)>
82

$$$$
>  <compound>
CC(C)[C@H](CO)Nc1nc(Nc2cccc(Cl)c2)c2ncn(C(C)C)c2n1 [PURVALANOLA]

>  <value_unit>
%

>  <Population Healthy Nuclei (%)>
80

$$$$
>  <compound>
CCCCN(CC)c1nc(C)nc2c1c(C)cn2-c1c(C)cc(C)cc1C.Cl

>  <value_unit>
%

>  <Population Healthy Nuclei (%)>
85

$$$$
>  <compound>
CCCc1cc(C)[nH]c(=O)c1CNC(=O)c1cc(-c2ccc(N3CCN(C(C)C)CC3)nc2)cc2c1cnn2C(C)C

>  <value_unit>
%

>  <Population Healthy Nuclei (%)>
60

$$$$
>  <compound>
Cc1c(Nc2ccc(S(=O)(=O)N3CCN(C)CC3)cc2F)nc2ccc(Nc3cnn(C4CC4)c3)cn2c1=O

>  <value_unit>
%

>  <Population Healthy Nuclei (%)>
80

$$$$
>  <compound>
CCCCCNC(=N)N/N=C/c1c[nH]c2ccc(OC)cc12.O=C(O)/C=C\C(=O)O [TEGASEROD MALEATE]

>  <value_unit>
%

>  <Population Healthy Nuclei (%)>
78

$$$$
>  <compound>
C[C@@H](Oc1cc(-n2cnc3ccc(CN4CCN(C)CC4)cc32)sc1C(N)=O)c1ccccc1C(F)(F)F [GSK-461364]

>  <value_unit>
%

>  <Population Healthy Nuclei (%)>
65

$$$$

* * *

# Test system: HEK-293T
# measurement_description: Multiplex assay against HEK293T
# Type: toxicity, cell-based
# test_parameters: human, 12 h, 10 µM, compound concentration 10 uM, replicate 2
We begin with a simple list: items and their reported Population Mitochondria Different-Phenotype (%).
test_readout: Population Mitochondria Different-Phenotype (%)

>  <compound>
NC(=O)c1ccc2nc(-c3ccc(C4(N)CCC4)cc3)c(-c3ccccc3)n2n1 [BAY-1125976]

>  <recorded_value>
8

$$$$
>  <compound>
CC(C)[C@H](CO)Nc1nc(Nc2cccc(Cl)c2)c2ncn(C(C)C)c2n1 [PURVALANOLA]

>  <recorded_value>
82

$$$$
>  <compound>
CC(Cc1ccc(O)c(O)c1)C(C)Cc1ccc(O)c(O)c1 (stereo not drawn) [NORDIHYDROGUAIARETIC ACID]

>  <recorded_value>
14

$$$$
>  <compound>
CCOC(=O)CCNc1cc(N2CCc3ccccc3CC2)nc(-c2ccccn2)n1

>  <recorded_value>
43

$$$$
>  <compound>
CN1C(=O)[C@@H](NC(=O)c2cc3ccccc3[nH]2)N=C(c2ccccc2)c2ccccc21 [DEVAZEPIDE]

>  <recorded_value>
48

$$$$
>  <compound>
CC[C@H](Nc1ncnc2[nH]cnc12)c1nc2cccc(F)c2c(=O)n1-c1ccccc1 [IDELALISIB]

>  <recorded_value>
10

$$$$
>  <compound>
Oc1cccc(-c2nc(N3CCOCC3)c3oc4ncccc4c3n2)c1 [PI-103]

>  <recorded_value>
54

$$$$
>  <compound>
C=CC(=O)Nc1cc(-n2c(=O)ccc3cnc4ccc(-c5ccc(NS(C)(=O)=O)cc5)cc4c32)ccc1C

>  <recorded_value>
34

$$$$
